# % Activity (GW9508 Reference Compound) annotations
Target: human GPR120 (Homo sapiens, UniProt Q5NUL3)
Construct: host or cells: HEK293 cells co-expressing Gqi5
Sequence (Q5NUL3 whole entry): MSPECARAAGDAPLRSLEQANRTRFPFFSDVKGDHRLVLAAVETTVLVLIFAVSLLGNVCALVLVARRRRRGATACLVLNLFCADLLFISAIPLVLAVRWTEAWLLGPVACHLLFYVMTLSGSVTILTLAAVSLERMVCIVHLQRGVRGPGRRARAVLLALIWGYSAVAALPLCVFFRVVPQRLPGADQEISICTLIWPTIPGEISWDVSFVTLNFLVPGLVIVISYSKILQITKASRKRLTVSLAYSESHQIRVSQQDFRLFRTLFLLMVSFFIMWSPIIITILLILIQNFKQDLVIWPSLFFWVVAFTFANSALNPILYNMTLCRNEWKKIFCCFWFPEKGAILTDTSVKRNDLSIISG
Test: Intracellular Ca2+ assay in human GPR120 stable cell line (HEK293 co-expressing Gqi5), Flexstation
Assay type: cell-based
Conditions: % activity at 5 μM compared to the maximal activity of GW9508 at 6.7 μM (=100%); human GPR120 cells, Ca2+ fluorescence
Output should be the measured figure followed by the unit it is expressed in.

[
  {
    "molecule": "CC(Cc1ccc(OCc2cc(Cl)cc3c2OCC3(C)C)cc1)C(=O)O (stereo not drawn)",
    "% Activity (GW9508 Reference Compound)": "113.89%"
  },
  {
    "molecule": "CC1(C)Cc2cc(F)cc(COc3ccc(CCC(=O)O)c(Cl)c3)c2O1",
    "% Activity (GW9508 Reference Compound)": "111.18%"
  },
  {
    "molecule": "CC(Cc1ccc(OCc2cc(Cl)cc3c2OC(C)(C)C3)c(Cl)c1)C(=O)O (stereo not drawn)",
    "% Activity (GW9508 Reference Compound)": "116.1354%"
  },
  {
    "molecule": "CC1(C)Cc2cc(Cl)cc(COc3ccc4c(c3)CCC4CC(=O)O)c2O1 (stereo not drawn)",
    "% Activity (GW9508 Reference Compound)": "122.9%"
  },
  {
    "molecule": "CCOC(Cc1cc(F)c(OCc2cc(F)cc3c2OC(C)(C)C3)c(F)c1)C(=O)O (stereo not drawn)",
    "% Activity (GW9508 Reference Compound)": "78.46%"
  }
]

Problem: Please report the recorded % Activity (GW9508 Reference Compound) for "C[C@H](Cc1ccc(OCc2cc(Cl)cc3c2OC(C)(C)C3)c(F)c1)C(=O)O" .
Result: 143.3%

Problem: Another: Cc1cc(COc2ccc(CC(C)C(=O)O)cc2)c2c(c1)CC(C)(C)O2 (stereo not drawn)
Result: 110.8%

Problem: Another: Cc1cc2cccc(COc3ccc4c(c3)CCC4CC(=O)O)c2s1 (stereo not drawn)
Result: 83.81%

Problem: Another: CC(Cc1ccc(OCc2cc(F)cc3c2OC(C)(C)C3)cc1)C(=O)O (stereo not drawn)
Result: 110.8294%

Each recorded value in this set is attributed to patent US20130109734A1.
